Listed next: entries and their corresponding Elastin Secretion at 48 hours.
system: Human Dermal Fibroblasts (KMST-6); assay: ECM ELISA assay: elastin secretion by human dermal fibroblasts; assay type: cell-based; details: 5 μM, KMST-6, 48 hours, % compared to control set at 100%, normalized to total protein
The star is where a group is joined. Ac7‑β‑Lac = heptaacetyl-β-lactoside (peracetylated β-lactose), CC(=O)OC[C@H]1O[C@@H](O[C@H]2[C@H](OC(C)=O)[C@@H](OC(C)=O)[C@H](*)O[C@@H]2COC(C)=O)[C@H](OC(C)=O)[C@@H](OC(C)=O)[C@H]1OC(C)=O; βGlc = OC[C@H]1O[C@@H](*)[C@H](O)[C@@H](O)[C@@H]1O; Palmitoyl = CCCCCCCCCCCCCCCC(=O)*
Reply numerically in %, unit not repeated.

Substance: Pal-KT(Ac7-β-Lac)TKS-OH (Palmitoyl-KT(Ac7‑β‑Lac)TKS-OH; SMILES CCCCCCCCCCCCCCCC(=O)N[C@@H](CCCCN)C(=O)N[C@H](C(=O)N[C@H](C(=O)N[C@@H](CCCCN)C(=O)N[C@@H](CO)C(=O)O)[C@@H](C)O)[C@@H](C)O[C@@H]1O[C@H](COC(C)=O)[C@@H](O[C@@H]2O[C@H](COC(C)=O)[C@H](OC(C)=O)[C@H](OC(C)=O)[C@H]2OC(C)=O)[C@H](OC(C)=O)[C@H]1OC(C)=O; listed as Homo sapiens) [GP004-5]
Elastin Secretion at 48 hours [%]: 195.3

Now for the substance whose Elastin Secretion at 48 hours we want.
[ask] What measured Elastin Secretion at 48 hours goes with Pal-KTT(β-Glc)KS-OH (Palmitoyl-KTT(βGlc)KS-OH; SMILES CCCCCCCCCCCCCCCC(=O)N[C@@H](CCCCN)C(=O)N[C@H](C(=O)N[C@H](C(=O)N[C@@H](CCCCN)C(=O)N[C@@H](CO)C(=O)O)[C@@H](C)O[C@@H]1O[C@H](CO)[C@@H](O)[C@H](O)[C@H]1O)[C@@H](C)O; listed as Homo sapiens) [GP001-8] ?
[reply] 94.25

====

tested on: Human Dermal Fibroblasts (KMST-6); experiment: ECM ELISA assay: elastin secretion by human dermal fibroblasts; assay type: cell-based; details: 5 μM, KMST-6, 48 hours, % compared to control set at 100%, normalized to total protein
The star is where a group is joined. Ac3‑α‑GalNAc = per-acetylated α-N-acetylgalactosamine (O-glycoside), CC(=O)N[C@@H]1[C@@H](OC(C)=O)[C@@H](OC(C)=O)[C@@H](COC(C)=O)O[C@@H]1*; Ac3‑β‑GlcNAc = per-acetylated β-N-acetylglucosamine, CC(=O)N[C@@H]1[C@@H](OC(C)=O)[C@H](OC(C)=O)[C@@H](COC(C)=O)O[C@H]1*; Ac4‑β‑Glc = per-acetylated β-glucose (tetraacetyl), CC(=O)OC[C@H]1O[C@@H](*)[C@H](OC(C)=O)[C@@H](OC(C)=O)[C@@H]1OC(C)=O; Ac3‑β‑Fuc = triacetyl-β-fucoside (peracetylated β-fucose), CC(=O)O[C@@H]1[C@H](OC(C)=O)[C@H](C)O[C@H](*)[C@H]1OC(C)=O; αGalNAc = CC(=O)N[C@@H]1[C@@H](O)[C@@H](O)[C@@H](CO)O[C@@H]1*; βGlcNAc = CC(=O)N[C@@H]1[C@@H](O)[C@H](O)[C@@H](CO)O[C@H]1*; βGal = OC[C@H]1O[C@@H](*)[C@H](O)[C@@H](O)[C@H]1O; Palmitoyl = CCCCCCCCCCCCCCCC(=O)*
Endpoint Name: Elastin Secretion at 48 hours (%)
Reply numerically in %, unit not repeated.

Substance: Pal-KTTKS(Ac3-β-Fuc)-OH (Palmitoyl-KTTKS(Ac3‑β‑Fuc)-OH; SMILES CCCCCCCCCCCCCCCC(=O)N[C@@H](CCCCN)C(=O)N[C@H](C(=O)N[C@H](C(=O)N[C@@H](CCCCN)C(=O)N[C@@H](CO[C@H]1O[C@@H](C)[C@@H](OC(C)=O)[C@@H](OC(C)=O)[C@@H]1OC(C)=O)C(=O)O)[C@@H](C)O)[C@@H](C)O; listed as Homo sapiens) [GP004-12]
Result Unit: %
Elastin Secretion at 48 hours: 151.4
//
Substance: Pal-KTT(Ac3-β-GlcNAc)KS-OH (Palmitoyl-KTT(Ac3‑β‑GlcNAc)KS-OH; SMILES CCCCCCCCCCCCCCCC(=O)N[C@@H](CCCCN)C(=O)N[C@H](C(=O)N[C@H](C(=O)N[C@@H](CCCCN)C(=O)N[C@@H](CO)C(=O)O)[C@@H](C)O[C@@H]1O[C@H](COC(C)=O)[C@@H](OC(C)=O)[C@H](OC(C)=O)[C@H]1NC(C)=O)[C@@H](C)O; listed as Homo sapiens) [GP001-11]
Result Unit: %
Elastin Secretion at 48 hours: 114.3
//
Substance: Pal-KT(Ac3-β-GlcNAc)TKS-OH (Palmitoyl-KT(Ac3‑β‑GlcNAc)TKS-OH; SMILES CCCCCCCCCCCCCCCC(=O)N[C@@H](CCCCN)C(=O)N[C@H](C(=O)N[C@H](C(=O)N[C@@H](CCCCN)C(=O)N[C@@H](CO)C(=O)O)[C@@H](C)O)[C@@H](C)O[C@@H]1O[C@H](COC(C)=O)[C@@H](OC(C)=O)[C@H](OC(C)=O)[C@H]1NC(C)=O; listed as Homo sapiens) [GP001-5]
Result Unit: %
Elastin Secretion at 48 hours: 81.67
//
Substance: Pal-KT(Ac4-β-Glc)TKS-OH (Palmitoyl-KT(Ac4‑β‑Glc)TKS-OH; SMILES CCCCCCCCCCCCCCCC(=O)N[C@@H](CCCCN)C(=O)N[C@H](C(=O)N[C@H](C(=O)N[C@@H](CCCCN)C(=O)N[C@@H](CO)C(=O)O)[C@@H](C)O)[C@@H](C)O[C@@H]1O[C@H](COC(C)=O)[C@@H](OC(C)=O)[C@H](OC(C)=O)[C@H]1OC(C)=O; listed as Homo sapiens) [GP001-1]
Result Unit: %
Elastin Secretion at 48 hours: 205.3
//
Substance: Pal-KT(Ac3-α-GalNAc)TKS-OH (Palmitoyl-KT(Ac3‑α‑GalNAc)TKS-OH; SMILES CCCCCCCCCCCCCCCC(=O)N[C@@H](CCCCN)C(=O)N[C@H](C(=O)N[C@H](C(=O)N[C@@H](CCCCN)C(=O)N[C@@H](CO)C(=O)O)[C@@H](C)O)[C@@H](C)O[C@H]1O[C@H](COC(C)=O)[C@H](OC(C)=O)[C@H](OC(C)=O)[C@H]1NC(C)=O; listed as Homo sapiens) [GP001-3]
Result Unit: %
Elastin Secretion at 48 hours: 123.3

[ask] What is its Elastin Secretion at 48 hours for Human Dermal Fibroblasts (KMST-6)? Entry: Pal-KTT(α-GalNAc)KS-OH (Palmitoyl-KTT(αGalNAc)KS-OH; SMILES CCCCCCCCCCCCCCCC(=O)N[C@@H](CCCCN)C(=O)N[C@H](C(=O)N[C@H](C(=O)N[C@@H](CCCCN)C(=O)N[C@@H](CO)C(=O)O)[C@@H](C)O[C@H]1O[C@H](CO)[C@H](O)[C@H](O)[C@H]1NC(C)=O)[C@@H](C)O; listed as Homo sapiens) [GP001-10]
[reply] 103.0

[ask] What is its Elastin Secretion at 48 hours for Human Dermal Fibroblasts (KMST-6)? Entry: Pal-KTTKS(β-Gal)-OH (Palmitoyl-KTTKS(βGal)-OH; SMILES CCCCCCCCCCCCCCCC(=O)N[C@@H](CCCCN)C(=O)N[C@H](C(=O)N[C@H](C(=O)N[C@@H](CCCCN)C(=O)N[C@@H](CO[C@@H]1O[C@H](CO)[C@H](O)[C@H](O)[C@H]1O)C(=O)O)[C@@H](C)O)[C@@H](C)O; listed as Homo sapiens) [GP002-8]
[reply] 103.8

[ask] What is its Elastin Secretion at 48 hours for Human Dermal Fibroblasts (KMST-6)? Entry: Pal-KT(β-GlcNAc)TKS-OH (Palmitoyl-KT(βGlcNAc)TKS-OH; SMILES CCCCCCCCCCCCCCCC(=O)N[C@@H](CCCCN)C(=O)N[C@H](C(=O)N[C@H](C(=O)N[C@@H](CCCCN)C(=O)N[C@@H](CO)C(=O)O)[C@@H](C)O)[C@@H](C)O[C@@H]1O[C@H](CO)[C@@H](O)[C@H](O)[C@H]1NC(C)=O; listed as Homo sapiens) [GP001-6]
[reply] 91.00
